assay: NCI Yeast Anticancer Drug Screen. Data for the rad50 strain (AID 155);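 further: 0% = growth of vehicle-only cultures of the same strain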; settings: S. cerevisiae rad50 strain growth inhibition; at 50.0 µM (retest, dose inferred, filed as 5.0); stronger effect = higher value
The panel holds about 79,000 compounds, 15% with a hit somewhere; the sample as a whole holds those more often.
Short version: growth inhibition at least 90% is Fulfilled, less is Not fulfilled.

Is the recorded value of growth inhibition equal to or greater than 90% for this molecule? O=S(=O)(F)c1ccc(Cl)cc1C[P+](c1ccccc1)(c1ccccc1)c1ccccc1
Not fulfilled

Is the recorded value of growth inhibition equal to or greater than 90% for this molecule? CC1CN1C1=C(Cl)C(=O)C(N2CC2C)=C(Cl)C1=O (configuration not stated)
Fulfilled

Is the recorded value of growth inhibition equal to or greater than 90% for this molecule? Oc1ccc(Cl)cc1Cc1ccccc1
Not fulfilled

Is the recorded value of growth inhibition equal to or greater than 90% for this molecule? CC/C(=C(/CC)c1ccc(OP(N)(=O)N(CCCl)CCCl)cc1)c1ccc(OP(N)(=O)N(CCCl)CCCl)cc1 (configuration not stated)
Not fulfilled

Is the recorded value of growth inhibition equal to or greater than 90% for this molecule? ClC(C[n+]1ccccc1)c1ccccc1 (configuration not stated)
Not fulfilled

Is the recorded value of growth inhibition equal to or greater than 90% for this molecule? Cc1c(N)nc([C@H](CC(N)=O)NC[C@H](N)C(N)=O)nc1C(=O)N[C@H](C(=O)N[C@H](C)[C@@H](O)CC(=O)N[C@H](C(=O)NC(O[C@@H]1O[C@@H](C)[C@@H](N)[C@@H](O)[C@H]1O)C(O)c1nc(-c2nc(C(=O)NCCCCN)cs2)cs1)[C@@H](C)O)[C@@H](O[C@@H]1O[C@@H](CO)[C@@H](O)[C@H](O)[C@@H]1O[C@H]1O[C@H](CO)[C@@H](O)[C@H](OC(N)=O)[C@@H]1O)c1c[nH]cn1 (some centres not stated)
Fulfilled

Is the recorded value of growth inhibition equal to or greater than 90% for this molecule? CSc1ccc2c(c1)c(CCN)c(C)n2Cc1ccccc1Cl
Fulfilled

###

assay: NCI Yeast Anticancer Drug Screen. Data for the mlh1 strain (AID 171);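 further: 0% = growth of vehicle-treated control cultures of the same strain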; settings: S. cerevisiae mlh1 strain growth inhibition; at 100.0 µM; stronger effect = higher value
This is part of a sample that, as a whole, favours compounds with a hit. Of some 79,000 tested, about 15% had one in any assay.
VALUE_TYPE: growth inhibition (%)
// note: answer is a bare numeric in %

// sample Cn1cc(NC(=O)c2cc(NC(=O)CN=C(N)N)cn2C)cc1C(=O)NCCC(=N)N , its growth inhibition was 98

// sample O=C1c2ccc3ccccc3c2CCC1N1CCCCC1 (centres undefined) , its growth inhibition was 98

// sample CC(C)CC(NC(=O)C(N)C(C)C)C(=O)NC(CCCCN)C(=O)Nc1ccc(N(CCCl)CCCl)cc1 (centres undefined) , its growth inhibition was -19

// sample C/C(CCl)=N/NC1=NC(c2ccccc2Cl)P(=O)(NCCCNP2(=O)SC(N/N=C(/C)CCl)=NC2c2ccccc2Cl)S1 (centres undefined) , its growth inhibition was 16

// sample C[N+](CCCl)(CCCl)Cc1cccc2cccc([N+](=O)[O-])c12 , its growth inhibition was 21

// sample Nc1ccc(Cl)cc1C(=O)c1ccccc1 , its growth inhibition was 97

// sample COC1C(O)C(C)OC(OC2C(Oc3cccc4c(O)c5c(=O)oc6ccc(C)c7c(=O)oc(c34)c5c67)OC(C)C(O)C2O)C1O (centres undefined) , its growth inhibition was 30

// sample CSc1ccccc1[As](C)C , its growth inhibition was 100

// sample CC1CC(Br)C(=O)O1 (centres undefined) , its growth inhibition was 90
